# System: Zika virus NS2B-NS3 protease (linked construct)
# ASSAY EXPLANATION: Primary screen NINDS Rhodamine qHTS for Zika virus inhibitors (AID 1347160); also: nearly all actives have a fitted effect of over 55% in size
# TEST PARAMETERS: purified NS2B-NS3 protease, Rhodamine110 substrate fluorescence; series mostly up to 33.1 µM
# Text: Avindra Nath, Ph.D., National Institute of Neurological Disorders and Stroke (NINDS), Bethesda, MD Radhakrishnan Padmanabhan, Ph.D., Georgetown University (GU), Washington D.C. Zika Virus causes congenital defects, including microcephaly and is associated with Guillain-Barre syndrome, eningoencephalitis and myelitis in infected adult. […]
Results filed as inconclusive are left out. The source made the active and inactive calls. Calls follow the shape of the dose curve; as a rule, active = well fitted inhibition curve with a large enough effect; inconclusive = small, poorly fitted or top-dose-only effect; inactive = no such curve, though single readings can be large or run the other way.
Classes used: label 1 = active, label 0 = inactive

{"COMPOUND": "Nc1ncnc2c1ncn2[C@H]1O[C@@H](C(=O)N2CCN(CC(=O)Nc3cccc4c3CNC4=O)CC2)[C@H](O)[C@@H]1O", "TARGET OF ASSAY": "Zika virus NS2B-NS3 protease (linked construct)", "CATEGORY": "label 0"}
{"COMPOUND": "C[C@@H]1C(=O)O[C@H]2[C@H]1CC[C@@]1(C)C(=O)C=C[C@@](C)(O)[C@H]21", "TARGET OF ASSAY": "Zika virus NS2B-NS3 protease (linked construct)", "CATEGORY": "label 0"}
{"COMPOUND": "C=C[C@H]1[C@H](O[C@@H]2O[C@H](CO)[C@@H](O)[C@H](O)[C@H]2O)OC=C(C(=O)OC)[C@H]1CC=O", "TARGET OF ASSAY": "Zika virus NS2B-NS3 protease (linked construct)", "CATEGORY": "label 0"}
{"COMPOUND": "N[C@@H](CC(=O)Nc1ccc(Oc2cc(F)c(F)cc2Br)cc1)C(=O)O", "TARGET OF ASSAY": "Zika virus NS2B-NS3 protease (linked construct)", "CATEGORY": "label 0"}
{"COMPOUND": "C=CCC1=C[C@]2(OC)[C@H](C)[C@@H](c3ccc(OC)c(OC)c3)O[C@]2(OC)CC1=O", "TARGET OF ASSAY": "Zika virus NS2B-NS3 protease (linked construct)", "CATEGORY": "label 0"}
{"COMPOUND": "NC1(c2ccc(NC(=O)c3ccnc(-c4cc(C(=O)O)ccn4)c3)cc2)CC1", "TARGET OF ASSAY": "Zika virus NS2B-NS3 protease (linked construct)", "CATEGORY": "label 0"}
{"COMPOUND": "COc1ccc(/C=C/C(=O)O[C@@H]2[C@@H](O[C@@H]3O[C@H](CO)[C@@H](O)[C@H](O)[C@H]3O)[C@@H](O)[C@H](O[C@H]3C4C=CO[C@@H](O[C@@H]5O[C@H](CO)[C@@H](O)[C@H](O)[C@H]5O)C4[C@@]4(CO)O[C@@H]34)O[C@H]2C)cc1 (some centres not stated)", "TARGET OF ASSAY": "Zika virus NS2B-NS3 protease (linked construct)", "CATEGORY": "label 0"}
{"COMPOUND": "CC1=C2C(=O)C=C(CO[C@@H]3O[C@H](CO)[C@@H](O)[C@H](O)[C@H]3O)[C@@H]2[C@H]2OC(=O)[C@H](C)[C@@H]2[C@@H](O)C1", "TARGET OF ASSAY": "Zika virus NS2B-NS3 protease (linked construct)", "CATEGORY": "label 0"}
{"COMPOUND": "COc1cc(C)c(C(=O)OC2C(C)OC(OC3CCC(C)C4C3C=C(C)C3/C(C)=C\\CC/C(C)=C/C5(C)C=C(C(=O)O)C(C)CC56OC(=O)/C(=C(\\O)C34C)C6=O)C(O)C2O)c(OC)c1 (configuration not stated)", "TARGET OF ASSAY": "Zika virus NS2B-NS3 protease (linked construct)", "CATEGORY": "label 1"}
{"COMPOUND": "C=C1C(O)CC2C(C(=O)O)=COC(OC3OC(CO)C(O)C(O)C3OC(=O)/C=C\\c3ccc(O)cc3)C12 (configuration not stated)", "TARGET OF ASSAY": "Zika virus NS2B-NS3 protease (linked construct)", "CATEGORY": "label 0"}
{"COMPOUND": "FC(F)(F)c1nnc2c(Sc3ccccc3)nc3ccc(Cl)cc3n12", "TARGET OF ASSAY": "Zika virus NS2B-NS3 protease (linked construct)", "CATEGORY": "label 0"}
{"COMPOUND": "CN1CCN(C2=Nc3ccccc3Nc3ccc(O)cc32)CC1", "TARGET OF ASSAY": "Zika virus NS2B-NS3 protease (linked construct)", "CATEGORY": "label 0"}
{"COMPOUND": "C=CC(C)(O)CC/C=C(\\C)C(=O)O[C@@H]1[C@@H](O)[C@H](OC(C)(C=C)CC/C=C(\\C)C(=O)O[C@@H]2O[C@H](CO)[C@@H](O)[C@H](O)[C@H]2O)O[C@H](CO)[C@H]1OC(=O)/C(C)=C/CCC(C)(O)C=C (some centres not stated)", "TARGET OF ASSAY": "Zika virus NS2B-NS3 protease (linked construct)", "CATEGORY": "label 0"}
{"COMPOUND": "CCCC/C=C\\CCCCCc1cc(=O)c2ccccc2n1C", "TARGET OF ASSAY": "Zika virus NS2B-NS3 protease (linked construct)", "CATEGORY": "label 0"}
{"COMPOUND": "C=C1C(OC(C)=O)C(=O)C2C(C)(C)C(O)CCC2(C)C1CC(OC(C)=O)/C(C)=C/COC(C)=O (configuration not stated)", "TARGET OF ASSAY": "Zika virus NS2B-NS3 protease (linked construct)", "CATEGORY": "label 0"}
{"COMPOUND": "CC1C(=O)OCC2=CC[N+]3([O-])CCC(OC(=O)C(C)(O)C1(C)O)C23 (configuration not stated)", "TARGET OF ASSAY": "Zika virus NS2B-NS3 protease (linked construct)", "CATEGORY": "label 0"}
{"COMPOUND": "COC(=O)C1=COC(O[C@@H]2O[C@H](COC(=O)/C=C/c3ccc(O)cc3)[C@@H](O)[C@H](O)[C@H]2O)C2C(CO)=CCC12 (some centres not stated)", "TARGET OF ASSAY": "Zika virus NS2B-NS3 protease (linked construct)", "CATEGORY": "label 0"}
